Target chain: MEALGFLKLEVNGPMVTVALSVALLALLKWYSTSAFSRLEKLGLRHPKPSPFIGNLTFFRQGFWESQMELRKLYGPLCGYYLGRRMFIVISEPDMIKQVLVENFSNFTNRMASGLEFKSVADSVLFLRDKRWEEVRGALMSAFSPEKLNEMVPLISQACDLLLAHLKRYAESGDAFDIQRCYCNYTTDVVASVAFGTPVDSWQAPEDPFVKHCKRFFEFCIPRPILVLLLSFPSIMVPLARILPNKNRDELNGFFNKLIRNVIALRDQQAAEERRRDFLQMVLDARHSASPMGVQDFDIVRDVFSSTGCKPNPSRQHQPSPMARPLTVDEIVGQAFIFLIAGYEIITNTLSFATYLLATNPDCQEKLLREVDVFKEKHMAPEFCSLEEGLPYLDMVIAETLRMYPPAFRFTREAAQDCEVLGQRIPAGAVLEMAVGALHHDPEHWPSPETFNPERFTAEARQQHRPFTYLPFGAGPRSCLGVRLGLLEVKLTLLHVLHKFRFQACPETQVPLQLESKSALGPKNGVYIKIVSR
Can you tell me log10 of IC50 for the items I'm about to list?
Form field - Quantity: IC50; Unit: nM; Scale: log10

Lab note: each compound below needs its log10 of IC50 filled in.
1. COCCn1cc(Cn2ccnc2)c2ccccc21 [XXXVII]
2. Clc1ccc(Cn2cc(Cn3ccnc3)c3ccccc32)cc1 [XXXIX]
3. Cn1cc(Cn2ccnc2)c2ccccc21 [XXVII, 3-(imidazol-1-ylmethyl)-1-methylindole]
4. c1ccc2c(Cn3ccnc3)c(C3CC3)[nH]c2c1 [XIII]
5. COc1ccc(C(=O)n2cc(Cn3ccnc3)c3ccccc32)cc1 [XLIII]

1: 1.65; 2: 1.93; 3: 0.30; 4: -1.00; 5: 0.23

----------
Can you tell me IC50 for the items I'm about to list?
Target: prostacyclin synthetase (Sus scrofa, UniProt A0A5G2QT35)
Sequence (A0A5G2QT35 1-497): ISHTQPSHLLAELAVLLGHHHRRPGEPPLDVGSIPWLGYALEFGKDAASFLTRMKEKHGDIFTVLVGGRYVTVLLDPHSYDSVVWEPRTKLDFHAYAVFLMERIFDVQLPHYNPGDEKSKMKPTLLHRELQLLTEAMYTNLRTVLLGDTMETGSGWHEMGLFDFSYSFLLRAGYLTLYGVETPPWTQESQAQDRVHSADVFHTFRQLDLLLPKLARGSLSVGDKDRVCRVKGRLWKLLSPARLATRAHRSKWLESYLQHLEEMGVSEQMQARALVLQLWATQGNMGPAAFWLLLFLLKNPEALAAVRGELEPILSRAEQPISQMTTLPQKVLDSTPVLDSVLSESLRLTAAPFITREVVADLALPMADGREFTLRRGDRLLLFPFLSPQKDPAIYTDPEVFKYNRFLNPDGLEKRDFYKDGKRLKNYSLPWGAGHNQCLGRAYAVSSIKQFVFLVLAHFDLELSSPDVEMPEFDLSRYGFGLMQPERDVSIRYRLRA
Give bare numbers, in µM.

Consider the following illustrative entries.
{"COMPOUND": "c1ccc2c(Cn3ccnc3)c[nH]c2c1", "RESULT": 650}
{"COMPOUND": "c1ccc2c(c1)c(Cn1ccnc1)cn2CC1CC1", "RESULT": 100}
{"COMPOUND": "Oc1ccc2[nH]cc(Cn3ccnc3)c2c1 [Example XLVII, 5-hydroxy-3-(imidazol-1-ylmethyl)-indole]", "RESULT": 8}
{"COMPOUND": "Clc1ccccc1-c1[nH]c2ccccc2c1Cn1ccnc1", "RESULT": 40}
{"COMPOUND": "Cl.c1ccc(Cn2cc(Cn3ccnc3)c3ccccc32)cc1 [Example XXVI, hydrochloride]", "RESULT": 1}

Lab note: each compound below needs its IC50 filled in.
1. c1ccc2c(Cn3ccnc3)c(C3CCCCC3)[nH]c2c1
2. c1ccc(-c2[nH]c3ccccc3c2Cn2ccnc2)cc1

1: 21; 2: 12

Using the record for C=C(C)Cn1cc(Cn2ccnc2)c2ccccc21 , state its measured IC50.
1

----------
Molecular target: thromboxane synthetase (Homo sapiens, UniProt P24557)
Sequence (P24557 1-533): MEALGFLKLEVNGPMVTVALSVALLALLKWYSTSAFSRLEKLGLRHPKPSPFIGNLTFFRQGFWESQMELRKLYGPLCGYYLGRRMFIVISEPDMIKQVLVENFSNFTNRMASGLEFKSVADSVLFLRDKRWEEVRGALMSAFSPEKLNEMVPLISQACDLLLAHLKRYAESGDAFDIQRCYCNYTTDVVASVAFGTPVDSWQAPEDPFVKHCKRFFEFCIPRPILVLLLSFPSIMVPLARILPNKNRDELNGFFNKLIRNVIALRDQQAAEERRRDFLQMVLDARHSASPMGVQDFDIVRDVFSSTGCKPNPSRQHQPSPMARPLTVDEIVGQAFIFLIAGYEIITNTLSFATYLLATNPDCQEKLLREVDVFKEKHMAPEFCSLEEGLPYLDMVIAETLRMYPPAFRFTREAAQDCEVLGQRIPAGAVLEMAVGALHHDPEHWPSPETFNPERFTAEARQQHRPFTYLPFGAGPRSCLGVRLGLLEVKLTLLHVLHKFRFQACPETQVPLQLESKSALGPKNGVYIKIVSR
MEASUREMENT_NAME: pIC50
Give bare numbers, as −log10 of the molar value.

Consider the following illustrative entries.
{"COMPOUND": "c1ccc(-c2[nH]c3ccccc3c2Cn2ccnc2)cc1", "TGT": "thromboxane synthetase (Homo sapiens, UniProt P24557)", "MEASUREMENT_NAME": "pIC50", "RESULT": 8.00}
{"COMPOUND": "c1ccc2c(Cn3ccnc3)c(C3CCCCC3)[nH]c2c1", "TGT": "thromboxane synthetase (Homo sapiens, UniProt P24557)", "MEASUREMENT_NAME": "pIC50", "RESULT": 9.52}
{"COMPOUND": "Oc1ccc(-c2[nH]c3ccccc3c2Cn2ccnc2)cc1", "TGT": "thromboxane synthetase (Homo sapiens, UniProt P24557)", "MEASUREMENT_NAME": "pIC50", "RESULT": 8.18}
{"COMPOUND": "Oc1ccc2[nH]cc(Cn3ccnc3)c2c1 [Example XLVII, 5-hydroxy-3-(imidazol-1-ylmethyl)-indole]", "TGT": "thromboxane synthetase (Homo sapiens, UniProt P24557)", "MEASUREMENT_NAME": "pIC50", "RESULT": 8.64}
{"COMPOUND": "Cc1[nH]c2ccccc2c1Cn1ccnc1", "TGT": "thromboxane synthetase (Homo sapiens, UniProt P24557)", "MEASUREMENT_NAME": "pIC50", "RESULT": 7.92}

Lab note: each compound below needs its pIC50 filled in.
1. Cl.c1ccc(Cn2cc(Cn3ccnc3)c3ccccc32)cc1 [Example XXVI, hydrochloride]
2. c1ccc2c(Cn3ccnc3)c(C34CC5CC(CC(C5)C3)C4)[nH]c2c1
3. c1ccc2c(c1)c(Cn1ccnc1)cn2CC1CC1
4. CC(c1c[nH]c2ccccc12)n1ccnc1 (stereo not drawn) [Example VII, 3-[α-(imidazol-1-yl)ethyl]indole]
5. c1ccc(Cc2[nH]c3ccccc3c2Cn2ccnc2)cc1
6. Clc1ccccc1-c1[nH]c2ccccc2c1Cn1ccnc1
7. CC(c1cn(C)c2ccccc12)n1ccnc1 (stereo not shown)

[7.19, 8.60, 7.96, 7.52, 9.00, 8.52, 7.48]

Using the record for COc1ccc2[nH]c(C)c(Cn3ccnc3)c2c1 , state its measured pIC50.
7.21
